tested on: 138582-337-R-J1-PDC spheroids with HUVEC/MSC, viability; assay: Anticancer human tumor 138582-337-R-J1-PDC patient-derived Merkel cell tumor cell line growth inhibition [IpAb]; conditions: second compound 3.16 µM; first compound 0.316 µM; stronger effect = lower value
Quick list: viability, T/C per entry.

# example entries with known answers
compound="CCCS(=O)(=O)Nc1ccc(F)c(C(=O)c2c[nH]c3ncc(-c4ccc(Cl)cc4)cc23)c1F + CC(C)NCC(C(=O)N1CCN(c2ncnc3c2C(C)CC3O)CC1)c1ccc(Cl)cc1" quantity_name="viability, T/C" test_value=47.1%
compound="C=CC(=O)N1CCN(c2nc(=O)n(-c3c(C)ccnc3C(C)C)c3nc(-c4c(O)cccc4F)c(F)cc23)C(C)C1 (stereo not drawn) + CC(C)NCC(C(=O)N1CCN(c2ncnc3c2C(C)CC3O)CC1)c1ccc(Cl)cc1" quantity_name="viability, T/C" test_value=59.4%
compound="Cc1nc(NC(=O)N2CCCC2C(N)=O)sc1-c1ccnc(C(C)(C)C(F)(F)F)c1 (stereo not drawn) + CC(C)NCC(C(=O)N1CCN(c2ncnc3c2C(C)CC3O)CC1)c1ccc(Cl)cc1" quantity_name="viability, T/C" test_value=44.9%
compound="Cn1nccc1Nc1nccc(-c2ccn(C(CO)c3ccc(Cl)c(F)c3)c(=O)c2)n1 (stereo not drawn) + CC(C)NCC(C(=O)N1CCN(c2ncnc3c2C(C)CC3O)CC1)c1ccc(Cl)cc1" quantity_name="viability, T/C" test_value=48.8%
compound="Cn1ncc(Cl)c1-c1cc(C(=O)NC(CN)Cc2cccc(F)c2)sc1Cl (stereo not drawn) + CC(C)NCC(C(=O)N1CCN(c2ncnc3c2C(C)CC3O)CC1)c1ccc(Cl)cc1" quantity_name="viability, T/C" test_value=55.9%

Query block: Query (compound): COc1c(OCCCN2CCOCC2)ccc2c3n(c(=NC(=O)c4cnc(N)nc4)nc12)CCN3 + CC(C)NCC(C(=O)N1CCN(c2ncnc3c2C(C)CC3O)CC1)c1ccc(Cl)cc1 ; field requested: viability, T/C
Result block: 13.9%

Query block: Query (compound): CC1(C)CCC(CN2CCN(c3ccc(C(=O)NS(=O)(=O)c4ccc(NCC5CCOCC5)c([N+](=O)[O-])c4)c(Oc4cnc5[nH]ccc5c4)c3)CC2)=C(c2ccc(Cl)cc2)C1 + CC(C)NCC(C(=O)N1CCN(c2ncnc3c2C(C)CC3O)CC1)c1ccc(Cl)cc1 ; field requested: viability, T/C
Result block: 46.9%

Query block: Query (compound): C=CCn1c(=O)c2cnc(Nc3ccc(N4CCN(C)CC4)cc3)nc2n1-c1cccc(C(C)(C)O)n1 + CC(C)NCC(C(=O)N1CCN(c2ncnc3c2C(C)CC3O)CC1)c1ccc(Cl)cc1 ; field requested: viability, T/C
Result block: 38.9%

====

System: 138582-337-R-J1-PDC spheroids with HUVEC/MSC, viability
Test: Anticancer human tumor 138582-337-R-J1-PDC cell line growth inhibition [IpAb];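 also: spheroids exposed to compounds for seven days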;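 as to viability, T/C: 100% = DMSO vehicle control viability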
Details: second compound 1 µM; first compound 0.316 µM; stronger effect = lower value
Experimental: Combinatorial screen of targeted agents with ipatasertib and abemaciclib in multi-cell type tumor spheroids […] Compounds. […] If the clinical Cmax for an agent had not been determined, the highest concentration tested was 10 microM. NCI60 Cell Culture. […] The optimal seeding densities for each of the cell lines at each time point assessed were determined prior to performing the concentration response studies. […]
Quick list: viability, T/C per entry.
// return numeric value only (unit: %, not printed)

# example entries with known answers
compound="C=CCn1c(=O)c2cnc(Nc3ccc(N4CCN(C)CC4)cc3)nc2n1-c1cccc(C(C)(C)O)n1 + CCN1CCN(Cc2ccc(Nc3ncc(F)c(-c4cc(F)c5nc(C)n(C(C)C)c5c4)n3)nc2)CC1" quantity_unit=% test_value=101
compound="CC1(C)CCC(CN2CCN(c3ccc(C(=O)NS(=O)(=O)c4ccc(NCC5CCOCC5)c([N+](=O)[O-])c4)c(Oc4cnc5[nH]ccc5c4)c3)CC2)=C(c2ccc(Cl)cc2)C1 + CCN1CCN(Cc2ccc(Nc3ncc(F)c(-c4cc(F)c5nc(C)n(C(C)C)c5c4)n3)nc2)CC1" quantity_unit=% test_value=75.1
compound="C=CCn1c(=O)c2cnc(Nc3ccc(N4CCN(C)CC4)cc3)nc2n1-c1cccc(C(C)(C)O)n1 + CC(C)NCC(C(=O)N1CCN(c2ncnc3c2C(C)CC3O)CC1)c1ccc(Cl)cc1" quantity_unit=% test_value=54.5
compound="Cn1ncc(Cl)c1-c1cc(C(=O)NC(CN)Cc2cccc(F)c2)sc1Cl (stereo not given) + CCN1CCN(Cc2ccc(Nc3ncc(F)c(-c4cc(F)c5nc(C)n(C(C)C)c5c4)n3)nc2)CC1" quantity_unit=% test_value=70.3

Query block: Recall the recorded viability, T/C for Cc1nc(NC(=O)N2CCCC2C(N)=O)sc1-c1ccnc(C(C)(C)C(F)(F)F)c1 (stereo not given) + CC(C)NCC(C(=O)N1CCN(c2ncnc3c2C(C)CC3O)CC1)c1ccc(Cl)cc1 with 138582-337-R-J1-PDC spheroids with HUVEC/MSC, viability and state it.
Result block: 59.5

====

tested on: 138582-337-R-J1-PDC spheroids with HUVEC/MSC, viability; assay: Anticancer human tumor 138582-337-R-J1-PDC cell line growth inhibition [IpAb]; conditions: second compound 3.16 µM; first compound 3.16 µM; stronger effect = lower value;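 also: spheroids exposed to compounds for seven days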;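 as to viability, T/C: 100% = DMSO vehicle control viability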
Quick list: viability, T/C per entry.
// return numeric value only (unit: %, not printed)

# example entries with known answers
molecule="Cn1ncc(Cl)c1-c1cc(C(=O)NC(CN)Cc2cccc(F)c2)sc1Cl (centres undefined) + CC(C)NCC(C(=O)N1CCN(c2ncnc3c2C(C)CC3O)CC1)c1ccc(Cl)cc1" quantity_unit=% test_value=53.6
molecule="Cc1nc(NC(=O)N2CCCC2C(N)=O)sc1-c1ccnc(C(C)(C)C(F)(F)F)c1 (centres undefined) + CC(C)NCC(C(=O)N1CCN(c2ncnc3c2C(C)CC3O)CC1)c1ccc(Cl)cc1" quantity_unit=% test_value=27.1
molecule="C=CCn1c(=O)c2cnc(Nc3ccc(N4CCN(C)CC4)cc3)nc2n1-c1cccc(C(C)(C)O)n1 + CC(C)NCC(C(=O)N1CCN(c2ncnc3c2C(C)CC3O)CC1)c1ccc(Cl)cc1" quantity_unit=% test_value=74.8

Let's switch to this molecule now.
Query block: Query (molecule): CCCS(=O)(=O)Nc1ccc(F)c(C(=O)c2c[nH]c3ncc(-c4ccc(Cl)cc4)cc23)c1F + CC(C)NCC(C(=O)N1CCN(c2ncnc3c2C(C)CC3O)CC1)c1ccc(Cl)cc1 ; field requested: viability, T/C
Result block: 42.5

====

tested on: 138582-337-R-J1-PDC spheroids with HUVEC/MSC, viability; assay: Anticancer human tumor 138582-337-R-J1-PDC cell line growth inhibition [IpAb]; settings: curve of first compound; second compound 0.01 µM;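 also: spheroids exposed to compounds for seven days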
pIC50: −log10 of the molar value.
Quick list: pIC50 per entry.

# example entries with known answers
compound="Cc1nc(NC(=O)N2CCCC2C(N)=O)sc1-c1ccnc(C(C)(C)C(F)(F)F)c1 (stereo not given) + CCN1CCN(Cc2ccc(Nc3ncc(F)c(-c4cc(F)c5nc(C)n(C(C)C)c5c4)n3)nc2)CC1" test_value=5.73
compound="Cn1nccc1Nc1nccc(-c2ccn(C(CO)c3ccc(Cl)c(F)c3)c(=O)c2)n1 (stereo not given) + CCN1CCN(Cc2ccc(Nc3ncc(F)c(-c4cc(F)c5nc(C)n(C(C)C)c5c4)n3)nc2)CC1" test_value="< 5.00"
compound="CC(=O)c1c(C)c2cnc(Nc3ccc(N4CCNCC4)cn3)nc2n(C2CCCC2)c1=O + CCN1CCN(Cc2ccc(Nc3ncc(F)c(-c4cc(F)c5nc(C)n(C(C)C)c5c4)n3)nc2)CC1" test_value="< 6.52"
compound="COc1c(OCCCN2CCOCC2)ccc2c3n(c(=NC(=O)c4cnc(N)nc4)nc12)CCN3 + CCN1CCN(Cc2ccc(Nc3ncc(F)c(-c4cc(F)c5nc(C)n(C(C)C)c5c4)n3)nc2)CC1" test_value=7.32
compound="Cn1ncc(Cl)c1-c1cc(C(=O)NC(CN)Cc2cccc(F)c2)sc1Cl (stereo not given) + CCN1CCN(Cc2ccc(Nc3ncc(F)c(-c4cc(F)c5nc(C)n(C(C)C)c5c4)n3)nc2)CC1" test_value=5.82
compound="CCCS(=O)(=O)Nc1ccc(F)c(C(=O)c2c[nH]c3ncc(-c4ccc(Cl)cc4)cc23)c1F + CCN1CCN(Cc2ccc(Nc3ncc(F)c(-c4cc(F)c5nc(C)n(C(C)C)c5c4)n3)nc2)CC1" test_value="< 5.00"
compound="Cn1cnc2c(F)c(Nc3ccc(Br)cc3Cl)c(C(=O)NOCCO)cc21 + CCN1CCN(Cc2ccc(Nc3ncc(F)c(-c4cc(F)c5nc(C)n(C(C)C)c5c4)n3)nc2)CC1" test_value="< 5.52"
compound="Cn1ncnc1[C@H]1c2n[nH]c(=O)c3cc(F)cc(c23)N[C@@H]1c1ccc(F)cc1 + CCN1CCN(Cc2ccc(Nc3ncc(F)c(-c4cc(F)c5nc(C)n(C(C)C)c5c4)n3)nc2)CC1" test_value="< 7.00"

Query block: Query (compound): CC1(C)CCC(CN2CCN(c3ccc(C(=O)NS(=O)(=O)c4ccc(NCC5CCOCC5)c([N+](=O)[O-])c4)c(Oc4cnc5[nH]ccc5c4)c3)CC2)=C(c2ccc(Cl)cc2)C1 + CCN1CCN(Cc2ccc(Nc3ncc(F)c(-c4cc(F)c5nc(C)n(C(C)C)c5c4)n3)nc2)CC1 ; field requested: pIC50
Result block: < 5.00

Query block: Query (compound): C=CCn1c(=O)c2cnc(Nc3ccc(N4CCN(C)CC4)cc3)nc2n1-c1cccc(C(C)(C)O)n1 + CCN1CCN(Cc2ccc(Nc3ncc(F)c(-c4cc(F)c5nc(C)n(C(C)C)c5c4)n3)nc2)CC1 ; field requested: pIC50
Result block: < 5.00
